Sourced from the supplement of paper PMC9112550

System: Escherichia coli TOP10
procedure_summary: shrunken log2 fold change of peptide-encoding DNA abundance (4.5 h post-induction vs induction); higher = less antimicrobial activity (less host growth inhibition)
condition_parameters: time post-induction: 4.5 h; library: site-saturation at positions 5, 18, 19, 20
Please provide measured shrunken log2 fold change for the entries that follow.
When you answer, write just the number.

IN: Write shrunken log2 fold change of RRIRKRPPRLPRPRPRPRTCPRP ; system used: Escherichia coli TOP10
OUT: -0.202

IN: Write shrunken log2 fold change of RRIRDRPPRLPRPRPRPKPAPRP ; system used: Escherichia coli TOP10
OUT: 0.278

IN: Write shrunken log2 fold change of RRIRVRPPRLPRPRPRPLAEPRP ; system used: Escherichia coli TOP10
OUT: 0.433

###

Tested on: Escherichia coli TOP10
procedure_summary: shrunken log2 fold change of peptide-encoding DNA abundance (4.5 h post-induction vs induction); higher = less antimicrobial activity (less host growth inhibition)
condition_parameters: time post-induction: 4.5 h; library: site-saturation at positions 5, 18, 19, 20
quantity_kind: shrunken log2 fold change
When you answer, write just the number.

IN: Could you please provide reported shrunken log2 fold change for RRIRDRPPRLPRPRPRPPWFPRP ? Thanks!
OUT: 0.336

IN: Could you please provide reported shrunken log2 fold change for RRIRIRPPRLPRPRPRPTYVPRP ? Thanks!
OUT: -0.0344

IN: Could you please provide reported shrunken log2 fold change for RRIRMRPPRLPRPRPRPCGTPRP ? Thanks!
OUT: 1.97

IN: Could you please provide reported shrunken log2 fold change for RRIRHRPPRLPRPRPRPTWKPRP ? Thanks!
OUT: -0.011

IN: Could you please provide reported shrunken log2 fold change for RRIRNRPPRLPRPRPRPEASPRP ? Thanks!
OUT: 0.0343

IN: Could you please provide reported shrunken log2 fold change for RRIRWRPPRLPRPRPRPHSIPRP ? Thanks!
OUT: -0.143

IN: Could you please provide reported shrunken log2 fold change for RRIRMRPPRLPRPRPRPHTGPRP ? Thanks!
OUT: 0.0957

IN: Could you please provide reported shrunken log2 fold change for RRIRPRPPRLPRPRPRPKCDPRP ? Thanks!
OUT: -0.314

###

Tested on: Escherichia coli TOP10;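 note: peptides expressed intracellularly from a pBAD plasmid library in pooled LB shake-flask culture, induced with 0.3% L-arabinose, DNA abundance read by NGS, three biological replicates, DESeq2 with apeglm shrinkage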
procedure_summary: shrunken log2 fold change of peptide-encoding DNA abundance (4.5 h post-induction vs induction); higher = less antimicrobial activity (less host growth inhibition)
condition_parameters: time post-induction: 4.5 h; library: site-saturation at positions 5, 18, 19, 20
Please note: True applies when shrunken log2 fold change is 0.01 or greater, and False applies otherwise.

IN: # check: shrunken log2 fold change of RRIRSRPPRLPRPRPRPVIRPRP is greater than or equal to 0.01
OUT: False

IN: # check: shrunken log2 fold change of RRIRVRPPRLPRPRPRPHHKPRP is greater than or equal to 0.01
OUT: False

IN: # check: shrunken log2 fold change of RRIRRRPPRLPRPRPRPCEEPRP is greater than or equal to 0.01
OUT: True

IN: # check: shrunken log2 fold change of RRIRMRPPRLPRPRPRPWTEPRP is greater than or equal to 0.01
OUT: True

IN: # check: shrunken log2 fold change of RRIRKRPPRLPRPRPRPPTPPRP is greater than or equal to 0.01
OUT: True

IN: # check: shrunken log2 fold change of RRIRVRPPRLPRPRPRPWICPRP is greater than or equal to 0.01
OUT: False

IN: # check: shrunken log2 fold change of RRIRDRPPRLPRPRPRPGFIPRP is greater than or equal to 0.01
OUT: False

IN: # check: shrunken log2 fold change of RRIRFRPPRLPRPRPRPGLDPRP is greater than or equal to 0.01
OUT: False

IN: # check: shrunken log2 fold change of RRIRSRPPRLPRPRPRPYDQPRP is greater than or equal to 0.01
OUT: False

IN: # check: shrunken log2 fold change of RRIRPRPPRLPRPRPRPGQNPRP is greater than or equal to 0.01
OUT: True

IN: # check: shrunken log2 fold change of RRIRNRPPRLPRPRPRPMARPRP is greater than or equal to 0.01
OUT: True

IN: # check: shrunken log2 fold change of RRIRHRPPRLPRPRPRPATDPRP is greater than or equal to 0.01
OUT: False

IN: # check: shrunken log2 fold change of RRIRFRPPRLPRPRPRPCGAPRP is greater than or equal to 0.01
OUT: True

IN: # check: shrunken log2 fold change of RRIRSRPPRLPRPRPRPMAMPRP is greater than or equal to 0.01
OUT: True

IN: # check: shrunken log2 fold change of RRIRRRPPRLPRPRPRPIIWPRP is greater than or equal to 0.01
OUT: False

IN: # check: shrunken log2 fold change of RRIRGRPPRLPRPRPRPQVQPRP is greater than or equal to 0.01
OUT: True

IN: # check: shrunken log2 fold change of RRIRDRPPRLPRPRPRPPHIPRP is greater than or equal to 0.01
OUT: False

IN: # check: shrunken log2 fold change of RRIRPRPPRLPRPRPRPVFCPRP is greater than or equal to 0.01
OUT: False

IN: # check: shrunken log2 fold change of RRIRARPPRLPRPRPRPGGGPRP is greater than or equal to 0.01
OUT: True

IN: # check: shrunken log2 fold change of RRIRMRPPRLPRPRPRPWWQPRP is greater than or equal to 0.01
OUT: True

IN: # check: shrunken log2 fold change of RRIRSRPPRLPRPRPRPHGCPRP is greater than or equal to 0.01
OUT: False

IN: # check: shrunken log2 fold change of RRIRQRPPRLPRPRPRPRSVPRP is greater than or equal to 0.01
OUT: True

IN: # check: shrunken log2 fold change of RRIRKRPPRLPRPRPRPKTTPRP is greater than or equal to 0.01
OUT: True

IN: # check: shrunken log2 fold change of RRIRNRPPRLPRPRPRPAETPRP is greater than or equal to 0.01
OUT: False

IN: # check: shrunken log2 fold change of RRIRDRPPRLPRPRPRPTRTPRP is greater than or equal to 0.01
OUT: True

IN: # check: shrunken log2 fold change of RRIRMRPPRLPRPRPRPTDSPRP is greater than or equal to 0.01
OUT: True

IN: # check: shrunken log2 fold change of RRIRYRPPRLPRPRPRPLNSPRP is greater than or equal to 0.01
OUT: False

IN: # check: shrunken log2 fold change of RRIRKRPPRLPRPRPRPLNEPRP is greater than or equal to 0.01
OUT: True

IN: # check: shrunken log2 fold change of RRIRFRPPRLPRPRPRPGPTPRP is greater than or equal to 0.01
OUT: True

IN: # check: shrunken log2 fold change of RRIRSRPPRLPRPRPRPAPCPRP is greater than or equal to 0.01
OUT: True

IN: # check: shrunken log2 fold change of RRIRARPPRLPRPRPRPYAGPRP is greater than or equal to 0.01
OUT: False

IN: # check: shrunken log2 fold change of RRIRCRPPRLPRPRPRPSWEPRP is greater than or equal to 0.01
OUT: False

IN: # check: shrunken log2 fold change of RRIRERPPRLPRPRPRPQFRPRP is greater than or equal to 0.01
OUT: False

IN: # check: shrunken log2 fold change of RRIRLRPPRLPRPRPRPKNCPRP is greater than or equal to 0.01
OUT: False

IN: # check: shrunken log2 fold change of RRIRTRPPRLPRPRPRPWADPRP is greater than or equal to 0.01
OUT: True

IN: # check: shrunken log2 fold change of RRIRHRPPRLPRPRPRPGHQPRP is greater than or equal to 0.01
OUT: False

IN: # check: shrunken log2 fold change of RRIRGRPPRLPRPRPRPAASPRP is greater than or equal to 0.01
OUT: True

IN: # check: shrunken log2 fold change of RRIRRRPPRLPRPRPRPPLMPRP is greater than or equal to 0.01
OUT: True

IN: # check: shrunken log2 fold change of RRIRERPPRLPRPRPRPEPSPRP is greater than or equal to 0.01
OUT: True

IN: # check: shrunken log2 fold change of RRIRYRPPRLPRPRPRPPNDPRP is greater than or equal to 0.01
OUT: False

IN: # check: shrunken log2 fold change of RRIRWRPPRLPRPRPRPQGNPRP is greater than or equal to 0.01
OUT: False

IN: # check: shrunken log2 fold change of RRIRYRPPRLPRPRPRPMYKPRP is greater than or equal to 0.01
OUT: False

IN: # check: shrunken log2 fold change of RRIRGRPPRLPRPRPRPSQDPRP is greater than or equal to 0.01
OUT: True

IN: # check: shrunken log2 fold change of RRIRVRPPRLPRPRPRPIVVPRP is greater than or equal to 0.01
OUT: False

IN: # check: shrunken log2 fold change of RRIRQRPPRLPRPRPRPYVQPRP is greater than or equal to 0.01
OUT: False

IN: # check: shrunken log2 fold change of RRIRLRPPRLPRPRPRPKLPPRP is greater than or equal to 0.01
OUT: True
